Parameter: pIC50. Scope: all listed entries.
Experimental target: Polyketide synthase Pks13 (Mycobacterium tuberculosis (strain ATCC 25618 / H37Rv), UniProt I6X8D2)
Sequence (I6X8D2 whole entry, the tested form may be a part): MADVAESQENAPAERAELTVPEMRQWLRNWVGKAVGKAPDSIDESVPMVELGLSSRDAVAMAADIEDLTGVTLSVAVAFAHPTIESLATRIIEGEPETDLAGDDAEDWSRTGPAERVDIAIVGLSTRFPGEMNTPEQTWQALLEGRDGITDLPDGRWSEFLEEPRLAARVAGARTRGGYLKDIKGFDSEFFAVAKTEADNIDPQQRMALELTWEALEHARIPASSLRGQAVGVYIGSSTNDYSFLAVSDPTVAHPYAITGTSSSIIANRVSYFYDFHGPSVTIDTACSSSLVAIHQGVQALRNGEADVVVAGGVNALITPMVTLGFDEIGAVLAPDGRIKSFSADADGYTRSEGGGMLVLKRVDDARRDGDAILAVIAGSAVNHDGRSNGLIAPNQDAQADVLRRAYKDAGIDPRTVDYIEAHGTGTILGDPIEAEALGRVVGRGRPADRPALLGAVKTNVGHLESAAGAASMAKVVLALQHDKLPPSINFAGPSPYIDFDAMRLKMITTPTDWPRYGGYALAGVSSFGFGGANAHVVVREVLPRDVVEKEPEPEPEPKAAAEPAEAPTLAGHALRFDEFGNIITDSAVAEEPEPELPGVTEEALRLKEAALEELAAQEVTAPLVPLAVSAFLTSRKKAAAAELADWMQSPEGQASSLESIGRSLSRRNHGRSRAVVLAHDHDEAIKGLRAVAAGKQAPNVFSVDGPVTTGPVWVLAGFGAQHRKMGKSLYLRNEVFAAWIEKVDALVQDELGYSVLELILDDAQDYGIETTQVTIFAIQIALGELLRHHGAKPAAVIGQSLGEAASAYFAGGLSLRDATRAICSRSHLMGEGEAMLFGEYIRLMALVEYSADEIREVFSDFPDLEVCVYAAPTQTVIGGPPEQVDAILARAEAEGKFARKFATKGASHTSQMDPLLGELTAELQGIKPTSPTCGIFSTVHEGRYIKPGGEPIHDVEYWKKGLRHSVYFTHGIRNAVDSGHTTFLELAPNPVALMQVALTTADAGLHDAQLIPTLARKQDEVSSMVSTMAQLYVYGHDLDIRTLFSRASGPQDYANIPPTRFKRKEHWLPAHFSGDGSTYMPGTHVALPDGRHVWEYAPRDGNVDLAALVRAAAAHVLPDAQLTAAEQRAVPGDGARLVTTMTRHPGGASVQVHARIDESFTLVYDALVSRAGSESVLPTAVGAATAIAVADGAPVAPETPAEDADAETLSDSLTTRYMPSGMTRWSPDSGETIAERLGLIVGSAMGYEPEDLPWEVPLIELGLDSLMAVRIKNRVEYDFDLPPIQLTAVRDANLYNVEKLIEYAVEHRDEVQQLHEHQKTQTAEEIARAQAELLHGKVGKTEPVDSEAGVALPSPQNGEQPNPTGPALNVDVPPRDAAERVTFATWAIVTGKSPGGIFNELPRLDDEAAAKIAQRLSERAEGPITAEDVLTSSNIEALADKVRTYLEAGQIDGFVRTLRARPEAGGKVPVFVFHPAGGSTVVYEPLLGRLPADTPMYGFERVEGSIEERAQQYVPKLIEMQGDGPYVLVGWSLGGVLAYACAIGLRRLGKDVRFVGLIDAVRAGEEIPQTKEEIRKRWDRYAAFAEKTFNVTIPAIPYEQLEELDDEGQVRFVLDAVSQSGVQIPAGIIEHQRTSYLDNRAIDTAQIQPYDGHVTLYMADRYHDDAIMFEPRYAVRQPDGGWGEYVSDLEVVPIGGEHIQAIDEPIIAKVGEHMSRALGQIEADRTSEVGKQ
Assay name: Inhibition of Mycobacterium tuberculosis H37Rv Pks-13 TE domain using 4-MUH as fluorogenic substrate incubated for 90 mins by fluorescence based analysis
pIC50: −log10 of the molar value.
Quantity measured: pIC50

cpd_smiles=CN1CN(C2CCCC2)Cc2c(O)ccc3oc(-c4ccc(O)cc4)c(c23)C1=O observed_result=5.23
cpd_smiles=CN1CN(CC2CCC2)Cc2c(O)ccc3oc(-c4ccc(O)cc4)c(c23)C1=O observed_result=5.68

###

Assay name: Metabolic stability in human liver microsomes assessed as intrinsic clearance at 0.1 uM measured upto 60 mins by LC/MS-MS analysis
Type: ADME, Microsome
Condition label: read-out: CLH
Below is a list of entries, each paired with its recorded microsomal CLint at 0.1 µM value.
Quantity measured: microsomal CLint at 0.1 µM (µL/min/mg)

compound=Oc1ccc2c3c(cn2-c2ccc(Br)cc2)CCN(CC2CCC2)Cc13 observed_result=26.9
compound=CN1CN(C2CCCC2)Cc2c(O)ccc3oc(-c4ccc(O)cc4)c(c23)C1=O observed_result=48
compound=CN1CN(CC2CCC2)Cc2c(O)ccc3oc(-c4ccc(O)cc4)c(c23)C1=O observed_result=78.2
compound="O=C(O)Cc1ccccc1Nc1c(Cl)cccc1Cl [DICLOFENAC]" observed_result=248
